target.under.test: RAF proto-oncogene serine/threonine-protein kinase (Homo sapiens) (UniProt P04049);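 also: values are mean CRAF kinase inhibition from profiling of the GSK Published Kinase Inhibitor Set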
Sequence (P04049 whole entry): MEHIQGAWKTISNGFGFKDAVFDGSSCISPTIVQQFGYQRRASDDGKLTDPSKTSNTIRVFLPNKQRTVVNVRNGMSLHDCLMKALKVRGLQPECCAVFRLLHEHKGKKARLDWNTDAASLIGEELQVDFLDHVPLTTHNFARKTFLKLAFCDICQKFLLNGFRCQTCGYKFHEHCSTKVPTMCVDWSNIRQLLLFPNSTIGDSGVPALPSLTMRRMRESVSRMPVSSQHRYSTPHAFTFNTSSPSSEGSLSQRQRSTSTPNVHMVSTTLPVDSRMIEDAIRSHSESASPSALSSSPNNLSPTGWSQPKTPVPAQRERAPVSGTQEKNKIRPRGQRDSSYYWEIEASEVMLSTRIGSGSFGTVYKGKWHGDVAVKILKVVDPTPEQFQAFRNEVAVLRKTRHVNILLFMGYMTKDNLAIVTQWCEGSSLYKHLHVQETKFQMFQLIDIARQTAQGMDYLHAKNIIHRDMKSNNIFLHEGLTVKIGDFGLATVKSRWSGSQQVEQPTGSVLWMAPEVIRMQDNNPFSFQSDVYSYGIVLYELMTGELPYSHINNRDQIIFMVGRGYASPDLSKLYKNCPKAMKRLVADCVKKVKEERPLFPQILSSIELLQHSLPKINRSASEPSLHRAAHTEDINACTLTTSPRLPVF
experimental.setup: at 0.1 µM
measure: inhibition (%)

smiles=Cc1ccc(-c2cc3c(NC(=O)C4CC4)ncnc3o2)cc1 reading=-0.84
smiles=OCCCNc1nccc(-c2c(-c3ccc(F)cc3)nn3cc(C(F)(F)F)ccc23)n1 reading=0.53
smiles=CN1CCC(n2cnc(-c3ccc(F)cc3)c2-c2ccnc(NCCO)n2)CC1 reading=-1.57
smiles=Fc1ccc(Nc2nccc(-c3c(-c4ccc(C(F)(F)F)cc4)nn4ncccc34)n2)cc1F reading=4.84
smiles=CCn1c(-c2nonc2N)nc2cncc(C(=O)NCCNC)c21 reading=2.61

* * *

target.under.test: Vascular endothelial growth factor receptor 3 (Homo sapiens)
experimental.setup: at 0.1 µM
Description: GSK_PKIS: FLT4 mean inhibition at 0.1 uM [Nanosyn]
measure: inhibition (%)

molecule="CC1=C(C(=O)Nc2ccc3[nH]ncc3c2)C(c2ccc(F)cc2)N=C(c2ccc(C(F)(F)F)nc2)N1 (stereo unspecified)" measure=inhibition value_unit=% reading=1.85
molecule=CCN1CCC(C(=O)Nc2n[nH]c3nnc(-c4cccc(F)c4F)cc23)CC1 measure=inhibition value_unit=% reading=1.09
molecule=O=C1Nc2ccccc2/C1=C1\CCc2cc(O)ccc21 measure=inhibition value_unit=% reading=7.22
molecule=COc1c(C(N)=O)cc(-c2ccc(Cl)cc2)cc1-c1ccc(S(N)(=O)=O)cc1 measure=inhibition value_unit=% reading=2.5
molecule=Fc1ccc(Nc2nccc(-c3c(-c4ccc(C(F)(F)F)cc4)nn4ncccc34)n2)cc1F measure=inhibition value_unit=% reading=0.19
molecule=O=C(Nc1n[nH]c2nnc(-c3cccnc3)cc12)C1CC1 measure=inhibition value_unit=% reading=0.27

* * *

target.under.test: Serine/threonine-protein kinase B-raf (Homo sapiens) (UniProt P15056);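 also: reported value is the mean percent inhibition of BRAF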
Sequence (P15056 whole entry): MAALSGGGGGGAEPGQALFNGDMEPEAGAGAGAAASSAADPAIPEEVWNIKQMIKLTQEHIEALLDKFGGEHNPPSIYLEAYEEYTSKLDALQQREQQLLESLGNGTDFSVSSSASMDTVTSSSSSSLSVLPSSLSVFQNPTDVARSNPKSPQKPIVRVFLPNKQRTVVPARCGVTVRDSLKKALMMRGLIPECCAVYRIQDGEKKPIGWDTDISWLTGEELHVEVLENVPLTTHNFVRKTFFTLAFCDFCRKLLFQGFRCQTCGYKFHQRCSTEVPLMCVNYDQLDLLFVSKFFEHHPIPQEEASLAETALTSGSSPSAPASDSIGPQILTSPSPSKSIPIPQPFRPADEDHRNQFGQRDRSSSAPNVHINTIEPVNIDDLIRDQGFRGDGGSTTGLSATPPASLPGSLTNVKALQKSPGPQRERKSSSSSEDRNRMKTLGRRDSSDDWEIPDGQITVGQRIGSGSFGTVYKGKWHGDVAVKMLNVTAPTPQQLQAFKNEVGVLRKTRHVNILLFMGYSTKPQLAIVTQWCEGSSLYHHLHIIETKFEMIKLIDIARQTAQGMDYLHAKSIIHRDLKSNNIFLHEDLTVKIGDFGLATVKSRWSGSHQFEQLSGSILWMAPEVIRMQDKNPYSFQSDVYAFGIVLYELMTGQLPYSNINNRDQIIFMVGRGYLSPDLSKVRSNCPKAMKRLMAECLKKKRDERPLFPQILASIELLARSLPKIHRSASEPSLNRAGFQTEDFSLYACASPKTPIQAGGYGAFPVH
experimental.setup: at 1 µM
Property: inhibition; scope: individual compounds
measure: inhibition

smiles=CCOc1ccc2c(-c3ccnc(Nc4cc(OC)cc(C(F)(F)F)c4)n3)cnn2n1 measure=inhibition reading=1.03%
smiles=COc1cc(N2CCN(C(C)C)CC2)ccc1Nc1nc(Nc2cccc3ncccc23)c2cc[nH]c2n1 measure=inhibition reading=0.61%
smiles=COC(=O)Nc1nc2cc(Oc3ccc(NC(=O)Nc4ccccc4)cc3)ccc2[nH]1 measure=inhibition reading=4.26%
smiles=COc1ccccc1-c1cc(/C=C2\C(=O)Nc3ncc(Br)cc32)cc(Br)c1O measure=inhibition reading=10.5%
smiles=CC(C)c1ccc(-c2cc(-c3c[nH]nc3-c3ccccn3)ccn2)cc1 measure=inhibition reading=3.57%
smiles=COc1c(C(N)=O)cc(-c2ccc(Cl)cc2)cc1-c1ccc(S(N)(=O)=O)cc1 measure=inhibition reading=8.57%
smiles=NS(=O)(=O)c1cccc(N/C=C2\C(=O)Nc3ccccc32)c1 measure=inhibition reading=7.76%
smiles=COc1cc2c(cc1Nc1nc(Nc3cccc(F)c3C(N)=O)c3cc[nH]c3n1)N(C(=O)CN1CCN(C(C)C)CC1)CC2 measure=inhibition reading=7.9%
smiles=CS(=O)(=O)CCNCc1ccc(-c2ccc3ncnc(Nc4ccc(OCc5cccc(C(F)(F)F)c5)cc4)c3c2)o1 measure=inhibition reading=8.69%
smiles=CCS(=O)(=O)c1ccc(OC)c(Nc2ncc(-c3cccc(C(C)=O)c3)o2)c1 measure=inhibition reading=6.17%

* * *

target.under.test: Serine/threonine-protein kinase Chk1 (Homo sapiens) (UniProt O14757);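 also: mean inhibition of CHEK1, part of the GSK PKIS profiling set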
Sequence (O14757 whole entry): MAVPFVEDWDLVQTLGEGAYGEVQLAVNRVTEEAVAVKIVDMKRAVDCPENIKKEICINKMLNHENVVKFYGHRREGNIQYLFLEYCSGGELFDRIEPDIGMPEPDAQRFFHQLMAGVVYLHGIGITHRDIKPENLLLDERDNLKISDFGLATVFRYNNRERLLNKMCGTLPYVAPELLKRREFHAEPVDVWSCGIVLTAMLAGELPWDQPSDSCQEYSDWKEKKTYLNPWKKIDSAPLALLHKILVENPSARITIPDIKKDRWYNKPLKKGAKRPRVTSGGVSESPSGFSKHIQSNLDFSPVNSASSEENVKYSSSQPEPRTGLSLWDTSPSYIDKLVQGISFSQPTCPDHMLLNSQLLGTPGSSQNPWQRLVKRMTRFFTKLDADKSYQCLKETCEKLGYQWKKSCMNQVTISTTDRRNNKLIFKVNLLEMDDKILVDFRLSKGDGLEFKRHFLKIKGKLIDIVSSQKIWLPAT
experimental.setup: at 1 µM
measure: inhibition (%)

smiles=CCN1CCC(C(=O)Nc2n[nH]c3nnc(-c4cccc(F)c4F)cc23)CC1 value_unit=% reading=0.59
smiles=CN(C)CCNC(=O)Nc1ccc(N(C)c2ccnc(Nc3ccc(CS(C)(=O)=O)cc3)n2)cc1 value_unit=% reading=0.79
smiles=NC(=O)c1ccc2c(-c3ccnc(NCCCO)n3)c(-c3ccc(F)cc3)nn2c1 value_unit=% reading=7.94
smiles=N#Cc1cccc(Nc2ncc(-c3ccccc3)o2)c1 value_unit=% reading=2.48
smiles=c1cnn2ncc(-c3ccnc(NCCCN4CCOCC4)n3)c2c1 value_unit=% reading=1.83
smiles=Cc1ccc(-c2cc3c(NC(=O)C4CC4)ncnc3o2)cc1 value_unit=% reading=3.47
smiles=CS(=O)(=O)CCNCc1ccc(-c2ccc3ncnc(Nc4ccc(OCc5cccc(C(F)(F)F)c5)cc4)c3c2)o1 value_unit=% reading=7.64
smiles=CNC(=O)c1sc(-n2cnc3cc(OC)c(OC)cc32)cc1OCc1ccccc1C(F)(F)F value_unit=% reading=3.46
smiles=O=C(O[C@H]1CN[C@H](C#Cc2cc3ncnc(Nc4ccc5c(cnn5Cc5ccccc5)c4)c3s2)C1)N1CCOCC1 value_unit=% reading=-0.07
smiles=Cc1cc(O)cc(C)c1/C=C/c1cncc(C(N)=O)c1 value_unit=% reading=0.66
